Cited source: patent US8858995B2

# ASSAY TEXT: Plasma, liver and brain curcumin levels, implants versus diet (HPLC-fluorescence)
# Format: in vivo, ACI rats
# CONDITIONS: female, ACI (Augustus Copenhagen Irish), rat, brain, subcutaneous, 2 2-cm curcumin implants; implant route; day 1
READOUT TYPE: concentration at 1 day (ng/g)
Numbers only, in ng/g.

Query: What value of concentration at 1 day has been recorded for this entry: COc1cc(/C=C/C(=O)CC(=O)/C=C/c2ccc(O)c(OC)c2)ccc1O
Reply: 30

---

# ASSAY TEXT: Tissue curcuminoid levels after coated implants (UPLC)
# Type: in vivo, A/J mice
# CONDITIONS: female, A/J, mouse, liver, subcutaneous, 2 1.5 cm implants (60 mg/implant, approximately 10% drug load); delivered individually, two 1.5-cm implants, 21 days; read-out: level in the liver
READOUT TYPE: concentration at 21 days

Query: Recorded concentration at 21 days for O=C(/C=C/c1ccc(O)cc1)CC(=O)/C=C/c1ccc(O)cc1 , please?
Reply: 5 to 6 ng/g
